All values here come from the supplement of paper PMC9112550.

- Test system: Escherichia coli TOP10;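 also: peptides expressed intracellularly from a pBAD plasmid library in pooled LB shake-flask culture, induced with 0.3% L-arabinose, DNA abundance read by NGS, three biological replicates, DESeq2 with apeglm shrinkage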
- ASSAY_PROCEDURE: shrunken log2 fold change of peptide-encoding DNA abundance (4.5 h post-induction vs induction); higher = less antimicrobial activity (less host growth inhibition)
- CONDITION_SUMMARY: time post-induction: 4.5 h; library: site-saturation at positions 5, 18, 19, 20
Param threshold (-0.04) applies to shrunken log2 fold change; output Y when value >= threshold, N when value < threshold.

BIOPOLYMER_SEQUENCE: RRIRSRPPRLPRPRPRPIHTPRP
ASSIGNED_CLASS: N
--
BIOPOLYMER_SEQUENCE: RRIRKRPPRLPRPRPRPRNSPRP
ASSIGNED_CLASS: Y
--
BIOPOLYMER_SEQUENCE: RRIRQRPPRLPRPRPRPWTDPRP
ASSIGNED_CLASS: Y
--
BIOPOLYMER_SEQUENCE: RRIRNRPPRLPRPRPRPIKMPRP
ASSIGNED_CLASS: N

Does the sequence RRIRERPPRLPRPRPRPNLHPRP have recorded shrunken log2 fold change that is -0.04 or more?
Y
